# System: SK-MEL-5 melanoma
# protocol.description: NCI tumour cell line growth inhibition, 48 h
Entries and their TGI
Report as a plain number; the unit µM is understood.

[
  {
    "compound": "COC(=O)[C@]1(CCC(C)=O)C(=O)C=CN([C@H](C)c2ccccc2)[C@@H]1Cc1ccc(OC)c(OCc2ccccc2)c1I",
    "TGI (µM)": 26.9
  },
  {
    "compound": "C/C(=N\\NC(N)=S)c1ccc(Oc2ccccc2)cc1",
    "TGI (µM)": 18.8
  },
  {
    "compound": "COc1cc(C(=O)N[C@@H]2CCCN(C)C2)ccc1Nc1ncc2c(n1)N(C1CCCC1)CC(C)(C)C(=O)N2C",
    "TGI (µM)": 1.56
  },
  {
    "compound": "Cc1cc(C)c(CNC(=O)c2cc(Cl)c3c(c2C)O[C@@](C)(C2CCC(N(C)C)CC2)O3)c(=O)[nH]1 (some centres undefined)",
    "TGI (µM)": 63.2
  },
  {
    "compound": "C/C(=C/C(=O)N(C)c1ccccc1Cl)O[Si](C(C)C)(C(C)C)C(C)C",
    "TGI (µM)": 30.8
  },
  {
    "compound": "Cc1c(S(=O)(=O)/N=C(\\NO)Nc2ccc(Cl)cc2)sc2ccc(Cl)cc12",
    "TGI (µM)": 27.4
  }
]

The reported value for CN(C)CCCCN1c2ccccc2Sc2ccc(N=[N+]=[N-])cc21 in terms of TGI is 3.04

The reported value for COc1cc(-c2nn(-c3cccc(NC(=O)NCCNC(=O)c4ccccc4)c3)cc2-c2ccncc2)ccc1Cl in terms of TGI is 4.06

The reported value for O=C1/C(=C/c2ccc(Cl)cc2)NC(=S)N1CN1CCCCC1 in terms of TGI is 97.4

The reported value for CCn1nc(C#Cc2c(C)ccc3c(Nc4ccc(Cl)cc4)nccc23)c2c(N)ncnc21 in terms of TGI is 6.55

The reported value for O=c1[nH]nc(Nc2ccc(Cl)cc2)c2nnn(-c3ccc([N+](=O)[O-])cc3)c12 in terms of TGI is 22.7

The reported value for CCc1cccc(CC)c1NC1=CC(=O)C(=O)c2ccccc21 in terms of TGI is 21.6

The reported value for O=C(c1ccco1)c1c(C(F)(F)F)n([O-])c2cc(Cl)c(Cl)cc2[n+]1=O in terms of TGI is 1.45
